Cited source for all entries: the supplement of paper PMC10126150

System: ATP;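 also: ATP exposure 15 min at 22 °C before imaging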
Assay: switch fluorescence ratio, 500 uM ATP over buffer (Cy3 cluster intensity, sum of 5 cycles each) (fold (ratio)); higher = stronger signal-on switching upon ATP binding; sequences stand for … in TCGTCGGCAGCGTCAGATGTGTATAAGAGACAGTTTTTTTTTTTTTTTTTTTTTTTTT…TC
Conditions: aptamer strand: ATP DNA aptamer (quencher-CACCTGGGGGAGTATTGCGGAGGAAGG + anchor), 100 nM annealed; ATP concentration: 500 uM
observable: switch fluorescence ratio
Form rule: numeric answer, no unit written next to it.

query: Given the entry "GTTGTATGTT" , what switch fluorescence ratio was observed with ATP?
result: 1.02

query: Given the entry "TTAGAAGTAT" , what switch fluorescence ratio was observed with ATP?
result: 1.03

query: Given the entry "TAACGGAGGG" , what switch fluorescence ratio was observed with ATP?
result: 0.993

query: Given the entry "CTGCAACAGA" , what switch fluorescence ratio was observed with ATP?
result: 1.05

query: Given the entry "TTGAAGAAAC" , what switch fluorescence ratio was observed with ATP?
result: 1.04

query: Given the entry "GCCGGGACGC" , what switch fluorescence ratio was observed with ATP?
result: 1.05

query: Given the entry "GAAATTGATG" , what switch fluorescence ratio was observed with ATP?
result: 0.983

query: Given the entry "TGTAGTCCTT" , what switch fluorescence ratio was observed with ATP?
result: 0.949

query: Given the entry "GAACGGTGGG" , what switch fluorescence ratio was observed with ATP?
result: 0.976

query: Given the entry "TATTAAAAAT" , what switch fluorescence ratio was observed with ATP?
result: 1.03

query: Given the entry "TTTGGGTTCG" , what switch fluorescence ratio was observed with ATP?
result: 0.986

query: Given the entry "TGGGGTTTGC" , what switch fluorescence ratio was observed with ATP?
result: 0.991

query: Given the entry "AGGGCAAAAT" , what switch fluorescence ratio was observed with ATP?
result: 1.02

query: Given the entry "AGACGATGAG" , what switch fluorescence ratio was observed with ATP?
result: 0.933
